Target: Histone-lysine N-methyltransferase EHMT2 (Homo sapiens) (UniProt Q96KQ7)
Sequence (Q96KQ7 913-1193 limits assumed): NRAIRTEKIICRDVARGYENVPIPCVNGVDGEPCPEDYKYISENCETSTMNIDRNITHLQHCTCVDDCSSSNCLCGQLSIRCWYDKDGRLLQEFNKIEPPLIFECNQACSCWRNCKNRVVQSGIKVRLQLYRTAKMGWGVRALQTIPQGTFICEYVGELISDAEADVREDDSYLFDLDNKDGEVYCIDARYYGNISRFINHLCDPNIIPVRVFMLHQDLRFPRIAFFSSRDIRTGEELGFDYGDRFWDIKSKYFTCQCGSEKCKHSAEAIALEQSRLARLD
Test: qHTS Assay for Inhibitors of Histone Lysine Methyltransferase G9a; note: nearly all actives have a fitted effect of over 75% in size; note: potency is the fitted concentration of half-maximal effect
Conditions: G9a H3K9 monomethylation, AlphaScreen, 2 h; series mostly up to 59 µM
Experimental: Methylated lysines, on the N-terminal tails of histone proteins serve as epigenetic markers to recruit factors that can then modify local chromatin structure to lead to functional consequences. […] Methylation of biotinylated-histone peptide is measured through specific antibody-based detection, in conjunction with streptavidin-coated donor and anti-IgG antibody-coated acceptor beads. […]
The campaign covered roughly 350,000 compounds. About 31,000 (8.9%) were called active. Roughly 15% stayed inconclusive and do not appear here. Only a selection was taken, and actives are over-represented in it overall.
readout.type: Potency

// worked examples, Potency included
> print(dat)
                                   molecule  readout.type        meas.value
1  O=S(=O)(c1ccc(NC(=S)NN=C(C2CC2)C2CC2)cc1)N1CCOCC1       Potency  1.78 µM (active)
2   O=C(NCCCN1CCOCC1)c1cc(-c2ccc(Cl)cc2)on1       Potency          inactive
3  O=C(CCCCn1c(=O)c2ccccc2n(CC(=O)Nc2cccc(C(F)(F)F)c2)c1=O)NCc1ccc2c(c1)OCO2       Potency          inactive
4         CC(/C=N/NC(=O)c1ccncc1)=C\c1ccco1       Potency          inactive

The value of Potency measured for the molecule COc1cccc(N2CC(NS(=O)(=O)c3ccc(Cl)cc3)CC2=O)c1 (configuration not stated) turned out to be inactive

The value of Potency measured for the molecule CCOC(=O)c1cc2ccccc2n1CC(=O)c1ccccc1 turned out to be inactive

The value of Potency measured for the molecule O=C(COC(=O)c1ccccc1)Nc1cccc(S(=O)(=O)N2CCOCC2)c1 turned out to be inactive

The value of Potency measured for the molecule CCOc1cc(/C=N/NC(=O)c2cc(-c3ccccc3)nc3ccccc23)ccc1O turned out to be inactive
